Below, each of the binders is paired with its reported CDC % Relative activity value.
Biological target: human Claudin18.2 (human)
Experiment: cell-based or functional assay
endpoint_name: CDC % Relative activity (%)

INSERT INTO assay_data (binder, endpoint_name, numeric_result) VALUES
  ('267H5F12 (antibody, V domains shown) VH: QAYLQQSGAELVRSGASVKMSCKASGYTFTSHNMHWVKQTPGQGLEWIGYISPGNGYTNYNQKFRGKATLTADTSSSTAYMQISSLTSEDSAVYFCTRDYYGNSFTYWGQGTLVTVSA VL: DIVMTQSPSSLTEKAGERVSMSCKSSQSLFNSGNQKNYLTWYQQKPGQPPKLLIYWASTRESGVPDRFTGSGSGTEFTLTISSVQAEDLAVYYCQNNYWFPFTFGAGTKLELK', 'CDC % Relative activity', 172),
  ('237D2A4 (antibody, V domains shown) VH: QVQLKESGPGLVAPSQSLSITCTVSGFSLTSYGVSWVRQPPGKGLEWLGVIWGDGSTNYHSTLISRLRISKDKSKSQVFLKLNSLQTDDTATYYCAKAGRGNALDYWGQGTSVTVSS VL: DIVMTQSPSSLTVTAGEKVTMSCKSSQSLLNSGNQKNYLTWYQQKPGQPPKLLIYWASTRESGVPDRFTGSGSGTDFTLTISSVQAEDLAVYYCQNDYSFPLTFGAGTKLELK', 'CDC % Relative activity', 629),
  ('262H9H6 (antibody, V domains shown) VH: QAYLQQSGAELVRSGASVKMSCKASGYTFTSHNMHWVKQTPGQGLEWIGYISPGNGYTNYNQKFRGKATLTADTSSSTAYMQISSLTSEDSAVYFCTRDYYGNSFTYWGQGTLVTVSA VL: DIVMTQSPSSLTEKAGERVSMSCKSSQSLFNSGNQKNYLTWYQQKPGQPPKLLIYWASTRESGVPDRFTGSGSGTEFTLTISSVQAEDLAVYYCQNNYWFPFTFGAGTKLELK', 'CDC % Relative activity', 183),
  ('419A10D4 (antibody, V domains shown) VH: DVQLVESGGGLVQPGGSRKLSCAASGFTFSGFGMHWIRQTPEKGLEWVAYISSGSRPIYYADTVKGRFTISRDNPKNTLFLQMTSLRSEDTAMYFCARFYYGNSFDHWGQGTLVTVSA VL: DIVMTQSPSFLTVTAGEKVTMSCKSSQSLLNSGNQRNYLTWYQQKPGQPPKLLIYWASTRESGVPDRFTGSGSGTDFTLTVSSVQAEDLALYYCQNAYSFPLTFGAGTKLELK', 'CDC % Relative activity', 91.5),
  ('280F3B6 (antibody, V domains shown) VH: QAYLQQSGAELVRSGASVKMSCKASGYTFTSHNMHWVKQTPGQGLEWIGYIYPGNGGTNYNQKFKGKATLTADTSSSTAYMQISSLTSEDSAVYFCTRDYYGNSFAYWGQGTLVTVSA VL: DIVMTQSPSSLTEKAGERVSMSCKSSQSLFNSGNQKNYLTWYQQKPGQPPKLLIYWASTRESGVPDRFTGSGSGTDFTLTISSVQAEDLAVYYCQNDYWYPFTFGAGTKLELK', 'CDC % Relative activity', 121);
